Tested on: Mus musculus
protocol_notes: Gastrointestinal toxicity in Mus musculus Swiss albino (mouse) assessed as ratio of ulcer at 100 mg/kg, po measured after 2 hr
Assay type: organism-based
Design: dose 100 mg/kg, route oral
measurement_context: in vivo
quantity_kind: Activity

[[record]]
substance_smiles = "Cc1cccc(NC(=O)Cn2c(=O)sc3cc(C(=O)c4ccccc4F)ccc32)n1"
test_result = "Non-toxic"

[[record]]
substance_smiles = "Cc1ccnc(NC(=O)Cn2c(=O)sc3cc(C(=O)c4ccccc4)ccc32)c1"
test_result = "Toxic"

[[record]]
substance_smiles = "O=C(Cn1c(=O)sc2cc(C(=O)c3ccccc3Cl)ccc21)Nc1ccc(Cl)cc1"
test_result = "Non-toxic"

[[record]]
substance_smiles = "O=C(Cn1c(=O)sc2cc(C(=O)c3ccccc3Cl)ccc21)Nc1ccccn1"
test_result = "Non-toxic"

[[record]]
substance_smiles = "O=C(Cn1c(=O)sc2cc(C(=O)c3ccccc3)ccc21)Nc1cccc(Cl)c1"
test_result = "Non-toxic"

[[record]]
substance_smiles = "O=C(Cn1c(=O)sc2cc(C(=O)c3ccccc3F)ccc21)Nc1ccccn1"
test_result = "Non-toxic"

[[record]]
substance_smiles = "O=C(Cn1c(=O)sc2cc(C(=O)c3ccccc3F)ccc21)Nc1cccc(Cl)c1"
test_result = "Non-toxic"

[[record]]
substance_smiles = "Cc1ccnc(NC(=O)Cn2c(=O)sc3cc(C(=O)c4ccccc4F)ccc32)c1"
test_result = "Toxic"

[[record]]
substance_smiles = "CC(=O)Oc1ccccc1C(=O)O"
test_result = "Toxic"


* * *

Tested on: Mus musculus
protocol_notes: Anti-inflammatory activity in Mus musculus Swiss albino (mouse) assessed as inhibition of carrageenan-induced edema at 100 mg/kg, po pretreated 60 min before carrageenan-challenge measured after 90 min
Type: functional
Label Not fulfilled if inhibition in vivo at 100 mg/kg falls below 10%; label Fulfilled in every other case.

[[record]]
substance_smiles = "Cc1ccnc(NC(=O)Cn2c(=O)sc3cc(C(=O)c4ccccc4Cl)ccc32)c1"
class_label = "Not fulfilled"

[[record]]
substance_smiles = "Cc1cccc(NC(=O)Cn2c(=O)sc3cc(C(=O)c4ccccc4F)ccc32)n1"
class_label = "Not fulfilled"

[[record]]
substance_smiles = "O=C(Cn1c(=O)sc2cc(C(=O)c3ccccc3F)ccc21)Nc1cccc(Cl)c1"
class_label = "Fulfilled"

[[record]]
substance_smiles = "O=C(Cn1c(=O)sc2cc(C(=O)c3ccccc3Cl)ccc21)Nc1cccc(Cl)c1"
class_label = "Fulfilled"

[[record]]
substance_smiles = "O=C(Cn1c(=O)sc2cc(C(=O)c3ccccc3F)ccc21)Nc1ccccc1"
class_label = "Fulfilled"


* * *

assay_system: Prostaglandin G/H synthase 2 (Homo sapiens);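 note: human whole blood COX-2 activity read out as PGE2 level measured by enzyme immunoassay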
measurement_context: Blood, at 10 µM
Description: Inhibition of cyclooxygenase-2 in Homo sapiens (human) whole blood assessed as PGE2 level at 10 uM by EIA
Calls of active or inactive are those of the source. The rule behind the calls is not given here.
quantity_kind: inhibition

[[record]]
substance_smiles = "Cc1ccnc(NC(=O)Cn2c(=O)sc3cc(C(=O)c4ccccc4Cl)ccc32)c1"
assay_system = "Prostaglandin G/H synthase 2 (Homo sapiens)"
test_result = "inactive"

[[record]]
substance_smiles = "Cc1cccc(NC(=O)Cn2c(=O)sc3cc(C(=O)c4ccccc4F)ccc32)n1"
assay_system = "Prostaglandin G/H synthase 2 (Homo sapiens)"
test_result = "12.6%"

[[record]]
substance_smiles = "O=C(Cn1c(=O)sc2cc(C(=O)c3ccccc3)ccc21)Nc1ccccc1"
assay_system = "Prostaglandin G/H synthase 2 (Homo sapiens)"
test_result = "1.47%"

[[record]]
substance_smiles = "O=C(Cn1c(=O)sc2cc(C(=O)c3ccccc3)ccc21)Nc1ccccn1"
assay_system = "Prostaglandin G/H synthase 2 (Homo sapiens)"
test_result = "inactive"

[[record]]
substance_smiles = "Cc1ccnc(NC(=O)Cn2c(=O)sc3cc(C(=O)c4ccccc4F)ccc32)c1"
assay_system = "Prostaglandin G/H synthase 2 (Homo sapiens)"
test_result = "inactive"

[[record]]
substance_smiles = "Cc1cccc(NC(=O)Cn2c(=O)sc3cc(C(=O)c4ccccc4Cl)ccc32)n1"
assay_system = "Prostaglandin G/H synthase 2 (Homo sapiens)"
test_result = "2.21%"

[[record]]
substance_smiles = "O=C(Cn1c(=O)sc2cc(C(=O)c3ccccc3Cl)ccc21)Nc1ccccc1"
assay_system = "Prostaglandin G/H synthase 2 (Homo sapiens)"
test_result = "inactive"

[[record]]
substance_smiles = "O=C(Cn1c(=O)sc2cc(C(=O)c3ccccc3)ccc21)Nc1cccc(Cl)c1"
assay_system = "Prostaglandin G/H synthase 2 (Homo sapiens)"
test_result = "inactive"

